The reported numbers originate from patent US9260439B2.

Target: truncated PI3Kα (p110α/iSH2 p85α) (Homo sapiens (Human), UniProt P42336)
Sequence (P42336 whole entry, the tested form may be a part): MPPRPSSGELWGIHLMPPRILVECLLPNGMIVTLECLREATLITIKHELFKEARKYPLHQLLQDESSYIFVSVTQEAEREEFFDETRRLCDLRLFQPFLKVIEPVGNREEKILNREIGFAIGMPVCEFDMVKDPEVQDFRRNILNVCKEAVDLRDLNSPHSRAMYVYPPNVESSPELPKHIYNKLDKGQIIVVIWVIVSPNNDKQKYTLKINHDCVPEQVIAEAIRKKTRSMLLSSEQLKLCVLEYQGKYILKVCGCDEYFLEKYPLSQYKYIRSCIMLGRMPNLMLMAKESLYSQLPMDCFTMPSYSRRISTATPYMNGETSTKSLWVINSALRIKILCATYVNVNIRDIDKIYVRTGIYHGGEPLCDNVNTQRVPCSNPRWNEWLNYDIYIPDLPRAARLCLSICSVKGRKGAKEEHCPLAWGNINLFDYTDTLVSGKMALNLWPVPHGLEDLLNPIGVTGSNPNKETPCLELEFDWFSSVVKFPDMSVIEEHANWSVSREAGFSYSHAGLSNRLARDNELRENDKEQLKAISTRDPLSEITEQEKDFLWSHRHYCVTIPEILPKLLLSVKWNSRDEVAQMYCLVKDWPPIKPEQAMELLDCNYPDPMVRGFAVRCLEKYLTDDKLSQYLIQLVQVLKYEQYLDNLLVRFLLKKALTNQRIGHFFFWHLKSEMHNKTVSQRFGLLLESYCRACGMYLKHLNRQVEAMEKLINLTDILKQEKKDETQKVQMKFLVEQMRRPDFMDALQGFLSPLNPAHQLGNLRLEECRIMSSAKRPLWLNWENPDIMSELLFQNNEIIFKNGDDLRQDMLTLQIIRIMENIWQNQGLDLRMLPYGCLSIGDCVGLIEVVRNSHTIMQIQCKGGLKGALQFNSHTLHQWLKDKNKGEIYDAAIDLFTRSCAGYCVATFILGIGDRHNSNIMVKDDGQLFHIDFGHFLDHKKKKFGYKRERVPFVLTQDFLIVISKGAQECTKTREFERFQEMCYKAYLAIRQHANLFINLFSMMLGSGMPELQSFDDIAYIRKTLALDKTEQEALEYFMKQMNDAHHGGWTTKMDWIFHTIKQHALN
Test: PI3KA_Act fluorescence polarization kinase assay (Ki)
Type: biochemical
Conditions: 1 mM ATP
attribute.measured: PI3KA_Act Ki

compound | recorded.measurement
CS(=O)(=O)N[C@H]1C[C@H](N2CCc3c(-c4cnc(N)nc4)nc(N4CCOCC4)nc32)C1 [Example 105] | 0.157 nM
C[C@]1(N2CCc3c(-c4cnc(N)nc4)nc(N4CCOCC4)nc32)CCN(C(=O)[C@H](N)C(F)(F)F)C1.Cl [Example 314] | <0.018 nM
C[C@H]1COCCN1c1nc(-c2cnc(N)nc2)c2c(n1)N(C1(C)CCN(S(C)(=O)=O)C1)CC2 (stereo partly shown) [Example 164] | 0.030 nM
CNCC(=O)N1CC[C@](C)(N2CCc3c(-c4cnc(N)nc4)nc(N4CCOCC4)nc32)C1 [Example 298] | <0.018 nM
